Entries and their binning response values follow.
Target: Biotinylated CoV2 Spike ECD PreS-AVI protein (SARS-CoV-2, UniProt P0DTC2 14-1208)
Assay: Octet binning; competitor 15H7
Write no unit; give the number alone.

{"binder": "5A6 VHH-Fc (Fc fusion) QVQLVESGGGLAQAGGSLRLSCATSGLTFSMSAMGWFRQAPGNEREFVGVINWNGGSSRYADSVRGRFTISRDNAKNTVYLQMNSLKPEDTGVYYCAADALNIGTGEVNPRLYDYWGQGTQVMVSS", "measuredMetric": "binning response", "numericValue": 0.1}

Sample 3D4 VHH-Fc (Fc fusion) QVQLVESGGGLVQPGGSLRLSCAASGFTLDLNSIGWFRQAPGKEREGVSCISPSGSRMHYADSVKGRFTISRDNAKNTVYLQMNSLKPEDTAVYYCATGSPSYHYCSMYGLEYDSWGQGTQVTVPS — what was its binning response?
0.09
